Tested on: BL2-NFkB-Luc
Assay: CD40L-induced NF-kB luciferase activity, plate-corrected, relative to DMSO (0) and IKK inhibitor VII (-100) controls (% normalized activity); higher = more NF-kB reporter activity (less inhibition)
Details: 9.4 µM; stimulus: tCD40L 64 ng/ml; 4.5 h
Whole data set: some 1,900 compounds, median “CD40L-induced NF-kB luciferase activity, plate-corrected, relative to DMSO (0) and IKK inhibitor VII (-100) controls” near 0.032, cut for the lowest 2% near -26. Only a selection was taken, and the lowest values are over-represented in it overall.

COMPOUND: O=C(O)c1ccc(C(=O)C(=O)c2ccccc2)cc1
CD40L-induced NF-kB luciferase activity: -6.47
--
COMPOUND: CN(CCc1cnn(C)c1)Cc1nc(CC2CC2)no1
CD40L-induced NF-kB luciferase activity: -0.906
--
COMPOUND: Cc1ccc(C(=O)COC(=O)c2cnccn2)cc1[N+](=O)[O-]
CD40L-induced NF-kB luciferase activity: 0.896
--
COMPOUND: CCCC(=O)O[C@]1(C(=O)COC(C)=O)CC[C@H]2[C@@H]3C[C@H](F)C4=CC(=O)C=C[C@]4(C)[C@@]3(F)[C@@H](O)C[C@@]21C
CD40L-induced NF-kB luciferase activity: -17.6
--
COMPOUND: CCOc1cc(C)cc2oc(=O)cc(-c3ccccc3)c12
CD40L-induced NF-kB luciferase activity: 3.93
--
COMPOUND: COc1cc2c(cc1OC)C(c1cc3ccccc3oc1=O)=NC(C)(C)C2
CD40L-induced NF-kB luciferase activity: -0.782
--
COMPOUND: CC(=O)O[C@H]1C(=O)[C@@]2(C)[C@H]([C@H](OC(=O)c3ccccc3)[C@]3(O)C[C@H](OC(=O)[C@H](O)C(NC(=O)c4ccccc4)c4ccccc4)C(C)=C1C3(C)C)[C@]1(OC(C)=O)CO[C@@H]1C[C@@H]2O (stereo partly specified)
CD40L-induced NF-kB luciferase activity: -33.4
--
COMPOUND: CCCCCC(=O)O[C@]1(C(C)=O)CC[C@H]2[C@@H]3CCC4=CC(=O)CC[C@]4(C)[C@H]3CC[C@@]21C
CD40L-induced NF-kB luciferase activity: -8.91
--
COMPOUND: N/C(=N\OC(=O)c1cccc(Br)c1)c1ccncc1
CD40L-induced NF-kB luciferase activity: 2.67
--
COMPOUND: C=CCOC(=O)C1=C(C)NC(=O)NC1/C=C/c1ccccc1OC (stereo unspecified)
CD40L-induced NF-kB luciferase activity: -0.888
--
COMPOUND: COc1cc2oc(-c3ccc(O)cc3)cc(=O)c2c(OC)c1O
CD40L-induced NF-kB luciferase activity: 2.41
--
COMPOUND: CC(=O)Oc1ccc(C2OC(=O)c3ccccc3N2C(C)=O)cc1 (stereo unspecified)
CD40L-induced NF-kB luciferase activity: -32.9
--
COMPOUND: CCCC(=O)O[C@]1(C(=O)CO)CC[C@H]2[C@@H]3CCC4=CC(=O)CC[C@]4(C)[C@H]3[C@@H](O)C[C@@]21C
CD40L-induced NF-kB luciferase activity: -31.6
--
COMPOUND: C[C@@H]1C[C@H]2[C@@H]3C[C@H](F)C4=CC(=O)C=C[C@]4(C)[C@@]3(F)[C@@H](O)C[C@]2(C)[C@@]1(O)C(=O)CO
CD40L-induced NF-kB luciferase activity: -27.2
--
COMPOUND: COC(=O)c1[nH]c2ccc(C)cc2c1NC(=O)CN1CCc2cc(OC)c(OC)cc2C1
CD40L-induced NF-kB luciferase activity: -5.22
--
COMPOUND: COc1ccc(C2C3=C(OC(C)=O)c4ccccc4C3=Nc3c2c(=O)n(C)c(=O)n3C)cc1 (stereo unspecified)
CD40L-induced NF-kB luciferase activity: 6.21
--
COMPOUND: Cn1nc(-c2ccc(Cl)cc2)nc2c(=O)n(C)c(=O)nc1-2
CD40L-induced NF-kB luciferase activity: -95.2
--
COMPOUND: CCCCCCCC(=O)OCC(=O)[C@@]1(O)CC[C@H]2[C@@H]3CCC4=CC(=O)CC[C@]4(C)[C@H]3[C@@H](O)C[C@@]21C
CD40L-induced NF-kB luciferase activity: -24.2
--
COMPOUND: Cc1ccccc1C(=O)Oc1ccc(Sc2ccc(O)cc2)cc1
CD40L-induced NF-kB luciferase activity: 2.2
--
COMPOUND: C[C@]12CCC(=O)C=C1CC[C@@H]1[C@@H]2[C@@H](O)C[C@@]2(C)[C@H]1CC[C@]2(O)C(=O)CO
CD40L-induced NF-kB luciferase activity: -24.3
--
COMPOUND: Cc1cccc(N2C(=O)C3C(c4ccccc4)OC4(C(=O)c5ccccc5C4=O)C3C2=O)c1 (stereo unspecified)
CD40L-induced NF-kB luciferase activity: -0.286
--
COMPOUND: Cn1c(=O)[nH]c2nnc(-c3ccc(Cl)c(Cl)c3)nc2c1=O
CD40L-induced NF-kB luciferase activity: 25.5
--
COMPOUND: O=C(Nc1ccc(N2CCOCC2)cc1)c1ccc(-c2ccccc2[N+](=O)[O-])o1
CD40L-induced NF-kB luciferase activity: 17.3
--
COMPOUND: C[C@@H]1C[C@H]2[C@@H]3C[C@H](F)C4=CC(=O)C=C[C@]4(C)[C@@]3(F)[C@@H](O)C[C@]2(C)[C@@]1(O)C(=O)COC(=O)C(C)(C)C
CD40L-induced NF-kB luciferase activity: -29.5
--
COMPOUND: O=C(NCc1ccc(N2CCCC2=O)cc1)c1cccc(Cl)c1
CD40L-induced NF-kB luciferase activity: 0.303
--
COMPOUND: O=C1CCCC(=O)C1=Cc1c[nH]c2ccccc12
CD40L-induced NF-kB luciferase activity: -7.53
--
COMPOUND: O=C(Nc1ccc(Oc2c(F)c(F)c(F)c(F)c2F)cc1)OC1CCN2Cc3ccccc3N=C12 (stereo unspecified)
CD40L-induced NF-kB luciferase activity: -15.2
--
COMPOUND: CC(/C=C1\SC(=O)N(CCCC(=O)O)C1=O)=C\c1ccccc1
CD40L-induced NF-kB luciferase activity: -84.1
--
COMPOUND: C[C@@H]1C[C@H]2[C@@H]3CCC4=CC(=O)C=C[C@]4(C)[C@@]3(F)[C@@H](O)C[C@]2(C)[C@@]1(O)C(=O)COP(=O)(O)O
CD40L-induced NF-kB luciferase activity: -2.27
--
COMPOUND: O=C(c1cc2cc(Br)ccc2o1)N1CCCC1
CD40L-induced NF-kB luciferase activity: 38.8
--
COMPOUND: O=C(Nc1c(C(=O)O)[nH]c2ccccc12)NC1CCCCC1
CD40L-induced NF-kB luciferase activity: -0.728
--
COMPOUND: C[C@]12C[C@H](O)[C@H]3[C@@H](CCC4=CC(=O)CC[C@@]43C)[C@@H]1CC[C@@H]2C(=O)CO
CD40L-induced NF-kB luciferase activity: -19.6
--
COMPOUND: CC1(C)c2ccccc2N2CC(=O)N(CC(N)=O)C21C (stereo unspecified)
CD40L-induced NF-kB luciferase activity: 1.75
--
COMPOUND: CCCCC(=O)O[C@]1(C(=O)CO)CC[C@H]2[C@@H]3CCC4=CC(=O)CC[C@]4(C)[C@H]3[C@@H](O)C[C@@]21C
CD40L-induced NF-kB luciferase activity: -43.1
--
COMPOUND: CC(=O)OCC(=O)[C@@]1(OC(C)=O)[C@@H](C)C[C@H]2[C@@H]3C[C@H](F)C4=CC(=O)C=C[C@]4(C)[C@@]3(F)[C@@H](O)C[C@@]21C
CD40L-induced NF-kB luciferase activity: -17.3
--
COMPOUND: COc1ccc(-c2cc(=Nc3ccc(C)cc3)c3ccccc3o2)cc1
CD40L-induced NF-kB luciferase activity: 2.07
